System: Aspergillus versicolor
assay-name: Antifungal activity against Aspergillus versicolor ATCC 11730 after 72 hrs by serial dilution method
Assay type: functional
test-parameters: ATCC 11730, 72 h
// values below are reported log10 of MIC
experimental-endpoint: log10 of MIC (log10 of the value in µM)

compound: CNc1nc(C)c(C(=O)/C=C/c2c(Cl)cccc2Cl)s1
log10 of MIC: 2.49
//
compound: CNc1nc(C)c(C(=O)/C=C/c2ccccc2OC)s1
log10 of MIC: 2.53
//
compound: c1ccc(-c2ccc(C(c3ccccc3)n3ccnc3)cc2)cc1 (configuration not stated)
log10 of MIC: 1.40
//
compound: CNc1nc(C)c(C(=O)/C=C/c2ccc(Cl)cc2Cl)s1
log10 of MIC: 2.18
//
compound: CNc1nc(C)c(C(=O)/C=C/c2cccc([N+](=O)[O-])c2)s1
log10 of MIC: 2.52
//
compound: CNc1nc(C)c(C(=O)/C=C/c2ccccc2)s1
log10 of MIC: 2.29
//
compound: CC(=O)N1CCN(c2ccc(OCC3COC(Cn4ccnc4)(c4ccc(Cl)cc4Cl)O3)cc2)CC1 (configuration not stated)
log10 of MIC: 1.27
//
compound: CNc1nc(C)c(C(=O)/C=C/c2cccc(Cl)c2)s1
log10 of MIC: 2.53
//
compound: CNc1nc(C)c(C(=O)/C=C/c2ccc([N+](=O)[O-])cc2)s1
log10 of MIC: 2.52
//
compound: CNc1nc(C)c(C(=O)/C=C/c2ccc(OC)cc2)s1
log10 of MIC: 2.23
//
compound: CNc1nc(C)c(C(=O)/C=C/c2ccc(Cl)cc2)s1
log10 of MIC: 2.23
//
compound: CNc1nc(C)c(C(=O)/C=C/c2ccccc2Cl)s1
log10 of MIC: 2.18

----------
System: Listeria monocytogenes
assay-name: Bactericidal activity against Listeria monocytogenes NCTC 7973 after 24 hrs
Format: functional
test-parameters: NCTC 7973, 24 h

mol-smiles: CNc1nc(C)c(C(=O)/C=C/c2cccc(Cl)c2)s1
measured-on: Listeria monocytogenes
MBC [µM]: 513

mol-smiles: CNc1nc(C)c(C(=O)/C=C/c2ccc(OC)cc2)s1
measured-on: Listeria monocytogenes
MBC [µM]: 513

mol-smiles: CNc1nc(C)c(C(=O)/C=C/c2ccccc2OC)s1
measured-on: Listeria monocytogenes
MBC [µM]: 521

----------
Test system: Pseudomonas aeruginosa
assay-name: Antibacterial activity against Pseudomonas aeruginosa ATCC 27853 after 24 hrs by microdilution method
Type: functional
test-parameters: ATCC 27853, 24 h

mol-smiles: CN[C@@H]1[C@H](O[C@H]2[C@H](O[C@H]3[C@H](O)[C@@H](O)[C@H](N=C(N)N)[C@@H](O)[C@@H]3N=C(N)N)O[C@@H](C)[C@]2(O)C=O)O[C@@H](CO)[C@H](O)[C@H]1O
MIC, µM: 2
--
mol-smiles: CNc1nc(C)c(C(=O)/C=C/c2ccccc2)s1
MIC, µM: 291
--
mol-smiles: CNc1nc(C)c(C(=O)/C=C/c2ccc(Cl)cc2Cl)s1
MIC, µM: 306
--
mol-smiles: CNc1nc(C)c(C(=O)/C=C/c2c(Cl)cccc2Cl)s1
MIC, µM: 229
--
mol-smiles: CC1(C)S[C@@H]2[C@H](NC(=O)[C@H](N)c3ccccc3)C(=O)N2[C@H]1C(=O)O
MIC, µM: 248
--
mol-smiles: CNc1nc(C)c(C(=O)/C=C/c2ccc([N+](=O)[O-])cc2)s1
MIC, µM: 330
--
mol-smiles: CNc1nc(C)c(C(=O)/C=C/c2ccc(Cl)cc2)s1
MIC, µM: 256
--
mol-smiles: CNc1nc(C)c(C(=O)/C=C/c2ccc(OC)cc2)s1
MIC, µM: 342
--
mol-smiles: CNc1nc(C)c(C(=O)/C=C/c2ccccc2OC)s1
MIC, µM: 295
